Measured pKi by item
Target: recombinant human enteropeptidase (Homo sapiens (Human))
Sequence (P98073 whole entry): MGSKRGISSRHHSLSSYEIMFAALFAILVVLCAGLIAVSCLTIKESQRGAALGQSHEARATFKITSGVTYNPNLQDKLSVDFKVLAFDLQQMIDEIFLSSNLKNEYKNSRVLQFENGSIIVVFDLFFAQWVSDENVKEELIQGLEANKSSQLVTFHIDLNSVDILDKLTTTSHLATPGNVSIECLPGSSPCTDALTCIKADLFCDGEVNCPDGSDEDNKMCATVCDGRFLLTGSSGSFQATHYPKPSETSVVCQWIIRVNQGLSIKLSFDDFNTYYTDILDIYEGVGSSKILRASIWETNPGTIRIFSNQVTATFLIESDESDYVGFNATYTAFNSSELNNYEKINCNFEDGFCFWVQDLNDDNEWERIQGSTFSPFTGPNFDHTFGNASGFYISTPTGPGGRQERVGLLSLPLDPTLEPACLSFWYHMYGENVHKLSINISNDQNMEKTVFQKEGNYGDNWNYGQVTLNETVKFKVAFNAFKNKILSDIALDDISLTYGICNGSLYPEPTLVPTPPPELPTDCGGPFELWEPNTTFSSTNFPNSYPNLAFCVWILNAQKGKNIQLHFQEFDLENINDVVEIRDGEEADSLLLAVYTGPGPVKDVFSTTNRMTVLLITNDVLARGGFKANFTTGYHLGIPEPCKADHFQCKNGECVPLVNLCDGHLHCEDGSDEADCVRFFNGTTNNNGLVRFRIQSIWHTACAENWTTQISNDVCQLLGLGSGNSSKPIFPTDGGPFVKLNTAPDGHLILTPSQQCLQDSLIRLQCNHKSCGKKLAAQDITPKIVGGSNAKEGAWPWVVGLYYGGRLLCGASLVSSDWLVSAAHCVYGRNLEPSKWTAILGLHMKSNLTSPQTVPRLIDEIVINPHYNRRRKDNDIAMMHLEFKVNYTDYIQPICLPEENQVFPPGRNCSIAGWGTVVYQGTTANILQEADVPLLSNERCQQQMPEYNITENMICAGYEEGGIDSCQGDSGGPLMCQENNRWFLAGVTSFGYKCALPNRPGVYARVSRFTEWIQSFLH
Assay: Measurement of enteropeptidase inhibitory activity
Settings: recombinant human enteropeptidase, Gly-Asp-Asp-Asp-Asp-Lys-β-Naphtylamide substrate, Dixon plot
Structures can show the parent of a compound that is named as a salt.
Lab note — pKi values are minus log10 of concentrations in M.

N=C(N)c1ccc(OC(=O)c2ccc(CCC(=O)N[C@@H](CC(=O)O)C(=O)O)s2)c(F)c1.O=C(O)C(F)(F)F [reference compound A, trifluoroacetate, reference compound] ... 8.87
N=C(N)c1ccc(OC(=O)c2cc3c(s2)CN(CC(=O)O)CC3)c(F)c1 [B-43, bis(trifluoroacetate)] ... 9.16
N=C(N)c1ccc(OC(=O)c2cc3c(s2)CN(C(=O)N[C@@H](CC(=O)O)C(=O)O)CC3)c(F)c1 [B-55, trifluoroacetate] ... 9.70
C=CCN(C(=O)CN1CCc2cc(C(=O)Oc3ccc(C(=N)N)cc3F)sc2C1)[C@@H](CCC(=O)O)C(=O)O [B-45, bis(trifluoroacetate)] ... 9.21
N=C(N)c1ccc(OC(=O)c2ccc(CN3CSC[C@H]3C(=O)N[C@@H](CC(=O)O)C(=O)O)s2)c(F)c1 ... 9.82
CC(C)C[C@@H](C(=O)N[C@@H](CC(=O)O)C(=O)O)N(C)Cc1ccc(C(=O)Oc2ccc(C(=N)N)cc2F)s1 ... 9.28
CC(C)[C@@H](C(=O)N[C@@H](CCC(=O)O)C(=O)O)N(C)Cc1ccc(C(=O)Oc2ccc(C(=N)N)cc2F)s1 ... 9.00
CC(C)C[C@@H](C(=O)N[C@H](CCC(=O)O)C(=O)O)N(C)Cc1ccc(C(=O)Oc2ccc(C(=N)N)cc2F)s1 ... 9.21

Next up:
Ask: Indicate the recorded pKi value for this molecule: `CC(C)N(Cc1ccc(C(=O)Oc2ccc(C(=N)N)cc2F)s1)C(=O)N[C@@H](CC(=O)O)C(=O)O`
Result: 9.48
